# credit: patent US20090093460A1

Target sequence: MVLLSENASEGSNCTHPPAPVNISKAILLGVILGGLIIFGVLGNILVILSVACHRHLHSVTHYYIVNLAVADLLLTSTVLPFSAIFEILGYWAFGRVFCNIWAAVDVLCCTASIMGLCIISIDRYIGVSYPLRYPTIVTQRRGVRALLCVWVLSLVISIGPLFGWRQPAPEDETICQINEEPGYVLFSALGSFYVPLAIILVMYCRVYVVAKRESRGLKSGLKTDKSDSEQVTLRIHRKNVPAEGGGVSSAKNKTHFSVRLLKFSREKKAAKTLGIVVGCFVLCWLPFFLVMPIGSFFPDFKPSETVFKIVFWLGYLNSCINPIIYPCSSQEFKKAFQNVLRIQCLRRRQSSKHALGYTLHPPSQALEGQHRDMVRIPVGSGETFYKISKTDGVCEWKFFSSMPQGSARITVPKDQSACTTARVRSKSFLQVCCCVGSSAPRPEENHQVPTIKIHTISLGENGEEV
measurement name: pIC50
Scale: negative log10 of molar concentration, which is what pIC50 denotes.

For the compound shown here, `c1ccc2c(c1)N=C(N1CCNCC1)c1ccccc1S2` , give the reported pIC50.
6.57
